# Test system: 485368-065-R3-J5-PDC spheroids with HUVEC/MSC, viability
# EXPERIMENTAL PROTOCOL: Anticancer human tumor 485368-065-R3-J5-PDC patient-derived pancreatic carcinoma cell line growth inhibition [RAS]; active means viability on the fitted dose curve at most 10% of control; inactive means the rest
# TEST CONDITIONS: second compound 0.003 µM; first compound 0.3 µM
In this exercise, the only acceptable responses are 1.0 (active), 0.0 (inactive)

Record excerpt, results attached:
MOLECULE	CLASS NAME
CCc1c2c(nc3ccc(O)cc13)-c1cc3c(c(=O)n1C2)COC(=O)[C@]3(O)CC + CCn1c(-c2cccnc2C(C)OC)c2c3cc(ccc31)N1CCOC(CC(NC(=O)C(C(C)C)N(C)C(=O)C3(F)CCN(C(=O)C#CC(C)(C)N(C)C)CC3)C(=O)N3CCCC(N3)C(=O)OCC(C)(C)C2)C1	1.0
CC1(C)CCC(Nc2ncc(C(F)(F)F)c(-c3c[nH]c4c(P(C)(C)=O)c(C#N)ccc34)n2)CN1 (centres undefined) + CCn1c(-c2cccnc2C(C)OC)c2c3cc(ccc31)N1CCOC(CC(NC(=O)C(C(C)C)N(C)C(=O)C3(F)CCN(C(=O)C#CC(C)(C)N(C)C)CC3)C(=O)N3CCCC(N3)C(=O)OCC(C)(C)C2)C1	0.0
CC1(C)CCC(Nc2ncc(C(F)(F)F)c(-c3c[nH]c4c(P(C)(C)=O)c(C#N)ccc34)n2)CN1 (centres undefined) + CCn1c(-c2cc(N3CCN(C)CC3)cnc2C(C)OC)c2c3cc(ccc31)-c1csc(n1)CC(NC(=O)C1CC1C)C(=O)N1CCCC(N1)C(=O)OCC(C)(C)C2	0.0

Now, please, on to the next molecule.
Input line: Recorded call for CCc1c2c(nc3ccc(O)cc13)-c1cc3c(c(=O)n1C2)COC(=O)[C@]3(O)CC + CCn1c(-c2cc(N3CCN(C)CC3)cnc2C(C)OC)c2c3cc(ccc31)-c1csc(n1)CC(NC(=O)C1CC1C)C(=O)N1CCCC(N1)C(=O)OCC(C)(C)C2 ?
Output line: 1.0

---

# Test system: 485368-065-R3-J5-PDC spheroids with HUVEC/MSC, viability
# EXPERIMENTAL PROTOCOL: Anticancer human tumor 485368-065-R3-J5-PDC cell line growth inhibition [RAS]; active = viability on the fitted dose curve at most 10% of control; inactive = the rest;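 further: spheroids exposed to agents for seven days before readout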
# TEST CONDITIONS: second compound 0.3 µM; first compound 0.00949 µM
Log the outcome using a class from Y (active), N (inactive)

Consider the worked cases shown below.
MOLECULE	CLASS NAME
CCc1c2c(nc3ccc(O)cc13)-c1cc3c(c(=O)n1C2)COC(=O)[C@]3(O)CC + CCn1c(-c2cccnc2C(C)OC)c2c3cc(ccc31)N1CCOC(CC(NC(=O)C(C(C)C)N(C)C(=O)C3(F)CCN(C(=O)C#CC(C)(C)N(C)C)CC3)C(=O)N3CCCC(N3)C(=O)OCC(C)(C)C2)C1	N
CC1(C)CCC(Nc2ncc(C(F)(F)F)c(-c3c[nH]c4c(P(C)(C)=O)c(C#N)ccc34)n2)CN1 (centres undefined) + CCn1c(-c2cc(N3CCN(C)CC3)cnc2C(C)OC)c2c3cc(ccc31)-c1csc(n1)CC(NC(=O)C1CC1C)C(=O)N1CCCC(N1)C(=O)OCC(C)(C)C2	N
CC1(C)CCC(Nc2ncc(C(F)(F)F)c(-c3c[nH]c4c(P(C)(C)=O)c(C#N)ccc34)n2)CN1 (centres undefined) + CCn1c(-c2cccnc2C(C)OC)c2c3cc(ccc31)N1CCOC(CC(NC(=O)C(C(C)C)N(C)C(=O)C3(F)CCN(C(=O)C#CC(C)(C)N(C)C)CC3)C(=O)N3CCCC(N3)C(=O)OCC(C)(C)C2)C1	N

Input line: What was the test verdict on CCc1c2c(nc3ccc(O)cc13)-c1cc3c(c(=O)n1C2)COC(=O)[C@]3(O)CC + CCn1c(-c2cc(N3CCN(C)CC3)cnc2C(C)OC)c2c3cc(ccc31)-c1csc(n1)CC(NC(=O)C1CC1C)C(=O)N1CCCC(N1)C(=O)OCC(C)(C)C2 ?
Output line: Y

---

# Test system: 485368-065-R3-J5-PDC spheroids with HUVEC/MSC, viability
# EXPERIMENTAL PROTOCOL: Anticancer human tumor 485368-065-R3-J5-PDC cell line growth inhibition [RAS];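 further: spheroids exposed to agents for seven days before readout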
# TEST CONDITIONS: curve of first compound; second compound 0.00949 µM
EXPERIMENTAL ENDPOINT: IC50 (nM)
Reply with just the number (in nM).

Input line: IC50 for CCc1c2c(nc3ccc(O)cc13)-c1cc3c(c(=O)n1C2)COC(=O)[C@]3(O)CC + CCn1c(-c2cccnc2C(C)OC)c2c3cc(ccc31)N1CCOC(CC(NC(=O)C(C(C)C)N(C)C(=O)C3(F)CCN(C(=O)C#CC(C)(C)N(C)C)CC3)C(=O)N3CCCC(N3)C(=O)OCC(C)(C)C2)C1 ?
Output line: 2.14

---

# System: 485368-065-R3-J5-PDC spheroids with HUVEC/MSC, viability
# EXPERIMENTAL PROTOCOL: Anticancer human tumor 485368-065-R3-J5-PDC cell line growth inhibition [RAS];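 further: spheroids exposed to agents for seven days before readout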
# TEST CONDITIONS: curve of first compound; second compound 0.3 µM
pIC50: −log10 of the molar value.
Item-by-item account of pIC50

Worked set:
COMPOUND	pIC50
CC(=O)OC12COC1CC(O)C1(C)C(=O)C(O)C3=C(C)C(OC(=O)C(O)C(NC(=O)OC(C)(C)C)c4ccccc4)CC(O)(C(OC(=O)c4ccccc4)C21)C3(C)C (configuration not stated) + CCn1c(-c2cccnc2C(C)OC)c2c3cc(ccc31)N1CCOC(CC(NC(=O)C(C(C)C)N(C)C(=O)C3(F)CCN(C(=O)C#CC(C)(C)N(C)C)CC3)C(=O)N3CCCC(N3)C(=O)OCC(C)(C)C2)C1	> 7.50
C=CC(=O)N1CCN(c2nc(OCC3CCCN3C)nc3c(F)c(-c4nc(N)cc(C)c4C(F)(F)F)c(Cl)cc23)C(C)C1 (configuration not stated) + CCn1c(-c2cccnc2C(C)OC)c2c3cc(ccc31)N1CCOC(CC(NC(=O)C(C(C)C)N(C)C(=O)C3(F)CCN(C(=O)C#CC(C)(C)N(C)C)CC3)C(=O)N3CCCC(N3)C(=O)OCC(C)(C)C2)C1	< 6.00

Shifting focus to the compound that follows.
Input line: Report pIC50 for CC(C)NCC(C(=O)N1CCN(c2ncnc3c2C(C)CC3O)CC1)c1ccc(Cl)cc1 (configuration not stated) + CCn1c(-c2cccnc2C(C)OC)c2c3cc(ccc31)N1CCOC(CC(NC(=O)C(C(C)C)N(C)C(=O)C3(F)CCN(C(=O)C#CC(C)(C)N(C)C)CC3)C(=O)N3CCCC(N3)C(=O)OCC(C)(C)C2)C1 please.
Output line: < 5.00

---

Recorded measurements of viability, T/C, one per entry
# System: 485368-065-R3-J5-PDC spheroids with HUVEC/MSC, viability
# EXPERIMENTAL PROTOCOL: Anticancer human tumor 485368-065-R3-J5-PDC cell line growth inhibition [RAS];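 further: spheroids exposed to agents for seven days before readout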
# TEST CONDITIONS: second compound 0.000949 µM; first compound 0.0316 µM; stronger effect = lower value
Lab book: enter the figure in %, no units written.

COMPOUND	viability, T/C [%]
CC1(O)CCCC1n1c(=O)c(C(F)F)cc2cnc(NC3CCN(S(C)(=O)=O)CC3)nc21 (configuration not stated) + CCn1c(-c2cc(N3CCN(C)CC3)cnc2C(C)OC)c2c3cc(ccc31)-c1csc(n1)CC(NC(=O)C1CC1C)C(=O)N1CCCC(N1)C(=O)OCC(C)(C)C2	32.3
CC(=O)OC12COC1CC(O)C1(C)C(=O)C(O)C3=C(C)C(OC(=O)C(O)C(NC(=O)OC(C)(C)C)c4ccccc4)CC(O)(C(OC(=O)c4ccccc4)C21)C3(C)C (configuration not stated) + CCn1c(-c2cc(N3CCN(C)CC3)cnc2C(C)OC)c2c3cc(ccc31)-c1csc(n1)CC(NC(=O)C1CC1C)C(=O)N1CCCC(N1)C(=O)OCC(C)(C)C2	11.7
CC(=O)OC12COC1CC(O)C1(C)C(=O)C(O)C3=C(C)C(OC(=O)C(O)C(NC(=O)OC(C)(C)C)c4ccccc4)CC(O)(C(OC(=O)c4ccccc4)C21)C3(C)C (configuration not stated) + CCn1c(-c2cccnc2C(C)OC)c2c3cc(ccc31)N1CCOC(CC(NC(=O)C(C(C)C)N(C)C(=O)C3(F)CCN(C(=O)C#CC(C)(C)N(C)C)CC3)C(=O)N3CCCC(N3)C(=O)OCC(C)(C)C2)C1	12.6
CC1(O)CCCC1n1c(=O)c(C(F)F)cc2cnc(NC3CCN(S(C)(=O)=O)CC3)nc21 (configuration not stated) + CCn1c(-c2cccnc2C(C)OC)c2c3cc(ccc31)N1CCOC(CC(NC(=O)C(C(C)C)N(C)C(=O)C3(F)CCN(C(=O)C#CC(C)(C)N(C)C)CC3)C(=O)N3CCCC(N3)C(=O)OCC(C)(C)C2)C1	106
CC(Nc1ccc2c(c1)OCCn1cc(N3C(=O)OCC3C(F)F)nc1-2)C(N)=O (configuration not stated) + CCn1c(-c2cc(N3CCN(C)CC3)cnc2C(C)OC)c2c3cc(ccc31)-c1csc(n1)CC(NC(=O)C1CC1C)C(=O)N1CCCC(N1)C(=O)OCC(C)(C)C2	26.2

Input line: Which measured viability, T/C value corresponds to C=CC(=O)N1CCN(c2nc(OCC3CCCN3C)nc3c(F)c(-c4nc(N)cc(C)c4C(F)(F)F)c(Cl)cc23)C(C)C1 (configuration not stated) + CCn1c(-c2cc(N3CCN(C)CC3)cnc2C(C)OC)c2c3cc(ccc31)-c1csc(n1)CC(NC(=O)C1CC1C)C(=O)N1CCCC(N1)C(=O)OCC(C)(C)C2 ?
Output line: 36.7

Input line: Please answer likewise for NC1c2ccccc2OC12CCN(c1cnc3c(N4CCCc5ncccc54)n[nH]c3n1)CC2 (configuration not stated) + CCn1c(-c2cc(N3CCN(C)CC3)cnc2C(C)OC)c2c3cc(ccc31)-c1csc(n1)CC(NC(=O)C1CC1C)C(=O)N1CCCC(N1)C(=O)OCC(C)(C)C2
Output line: 20.7
